Reference source: patent US20200024330A1

Task for the reader: assign each of the following binders its reported Fold IC50 increase relative to wild-type.
- Tested target: HIV-1 JR-CSF Env S306A (HIV-1 JR-CSF) (UniProt P20871)
- Assay: cell-based or functional assay
Please report the result as a number followed by the unit.

// Fold IC50 increase relative to wild-type value for PGT-130 (antibody, V domains shown) VH: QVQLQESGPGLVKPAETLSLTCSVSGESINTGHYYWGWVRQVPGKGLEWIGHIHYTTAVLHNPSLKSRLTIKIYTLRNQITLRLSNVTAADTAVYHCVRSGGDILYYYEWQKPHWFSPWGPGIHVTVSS VL: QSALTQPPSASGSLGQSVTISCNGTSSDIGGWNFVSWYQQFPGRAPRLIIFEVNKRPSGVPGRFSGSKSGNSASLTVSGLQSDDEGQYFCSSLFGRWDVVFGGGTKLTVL : 1.5 fold

// Fold IC50 increase relative to wild-type value for PGT-135 (antibody, V domains shown) VH: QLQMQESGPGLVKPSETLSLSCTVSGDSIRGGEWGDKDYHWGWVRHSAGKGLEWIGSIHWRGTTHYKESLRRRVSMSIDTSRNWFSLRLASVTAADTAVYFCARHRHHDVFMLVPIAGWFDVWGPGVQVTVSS VL: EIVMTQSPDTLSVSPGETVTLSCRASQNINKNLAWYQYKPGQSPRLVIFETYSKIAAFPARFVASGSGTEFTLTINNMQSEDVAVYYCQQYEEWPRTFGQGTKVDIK : 0.4 fold

// Fold IC50 increase relative to wild-type value for PGT-126 (antibody, V domains shown) VH: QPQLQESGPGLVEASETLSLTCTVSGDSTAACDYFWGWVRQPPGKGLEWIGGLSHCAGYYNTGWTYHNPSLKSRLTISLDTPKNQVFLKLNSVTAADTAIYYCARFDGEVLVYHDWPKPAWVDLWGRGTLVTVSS VL: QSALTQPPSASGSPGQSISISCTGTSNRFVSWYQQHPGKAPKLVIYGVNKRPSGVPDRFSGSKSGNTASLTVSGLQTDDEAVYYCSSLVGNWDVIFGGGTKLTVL : 0.7 fold
